target: Integrin alpha-V/beta-3 (Homo sapiens, UniProt P05106+P06756); test: Inhibition of integrin alpha-V-beta-3 receptor by ELISA
Sequence (P05106 27-788 limits assumed): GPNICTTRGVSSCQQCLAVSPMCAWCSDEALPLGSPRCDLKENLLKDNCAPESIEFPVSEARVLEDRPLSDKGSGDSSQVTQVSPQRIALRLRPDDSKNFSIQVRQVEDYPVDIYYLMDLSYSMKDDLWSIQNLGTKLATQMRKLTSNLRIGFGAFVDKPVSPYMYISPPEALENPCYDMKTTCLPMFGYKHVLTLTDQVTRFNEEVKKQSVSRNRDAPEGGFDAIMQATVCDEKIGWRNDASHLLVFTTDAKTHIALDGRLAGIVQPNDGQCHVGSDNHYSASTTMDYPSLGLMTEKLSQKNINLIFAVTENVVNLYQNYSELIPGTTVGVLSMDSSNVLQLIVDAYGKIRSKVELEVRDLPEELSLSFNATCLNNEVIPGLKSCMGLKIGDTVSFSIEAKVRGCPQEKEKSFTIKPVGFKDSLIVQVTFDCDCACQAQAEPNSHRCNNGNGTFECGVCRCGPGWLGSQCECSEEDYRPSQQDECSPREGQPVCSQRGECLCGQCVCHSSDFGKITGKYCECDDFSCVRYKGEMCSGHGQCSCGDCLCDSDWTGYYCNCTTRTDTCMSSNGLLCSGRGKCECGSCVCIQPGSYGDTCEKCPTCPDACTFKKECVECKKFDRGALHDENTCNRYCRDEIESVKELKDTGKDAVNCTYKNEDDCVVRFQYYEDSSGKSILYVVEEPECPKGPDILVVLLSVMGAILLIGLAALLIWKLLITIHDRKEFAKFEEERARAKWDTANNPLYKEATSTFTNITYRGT
Sequence (P06756 31-889 limits assumed): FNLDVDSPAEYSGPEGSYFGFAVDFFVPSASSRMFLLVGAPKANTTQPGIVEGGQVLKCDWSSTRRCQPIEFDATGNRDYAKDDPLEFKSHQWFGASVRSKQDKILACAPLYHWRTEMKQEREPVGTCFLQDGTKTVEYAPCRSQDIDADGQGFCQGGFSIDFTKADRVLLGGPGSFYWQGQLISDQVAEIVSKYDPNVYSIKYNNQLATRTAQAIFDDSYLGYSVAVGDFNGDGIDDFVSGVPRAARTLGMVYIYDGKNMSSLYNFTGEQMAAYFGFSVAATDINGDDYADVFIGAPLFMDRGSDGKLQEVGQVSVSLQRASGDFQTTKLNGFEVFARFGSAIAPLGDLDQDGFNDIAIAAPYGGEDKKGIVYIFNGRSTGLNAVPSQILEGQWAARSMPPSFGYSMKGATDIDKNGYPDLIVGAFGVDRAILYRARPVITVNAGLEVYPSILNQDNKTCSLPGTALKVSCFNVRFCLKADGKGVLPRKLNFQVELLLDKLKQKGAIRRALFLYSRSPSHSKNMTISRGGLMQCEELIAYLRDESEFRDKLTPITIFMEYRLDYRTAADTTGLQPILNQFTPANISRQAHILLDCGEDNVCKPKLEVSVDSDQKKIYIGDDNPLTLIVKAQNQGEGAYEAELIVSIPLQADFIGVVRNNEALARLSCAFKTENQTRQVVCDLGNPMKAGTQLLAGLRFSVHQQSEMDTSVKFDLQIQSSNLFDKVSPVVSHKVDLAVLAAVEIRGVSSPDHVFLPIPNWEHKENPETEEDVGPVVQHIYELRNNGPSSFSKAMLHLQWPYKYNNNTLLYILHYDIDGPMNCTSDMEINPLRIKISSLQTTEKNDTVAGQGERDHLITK
Sequence (P06756 891-1048 limits assumed): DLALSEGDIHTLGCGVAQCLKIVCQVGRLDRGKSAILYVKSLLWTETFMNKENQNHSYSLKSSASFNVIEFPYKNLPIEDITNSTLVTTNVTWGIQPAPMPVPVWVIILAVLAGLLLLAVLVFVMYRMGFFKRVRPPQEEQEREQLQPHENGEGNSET

{"record.smiles": "COc1ccnc(NC[C@@H]2C[C@@H](OCC(=O)NC[C@H](NS(=O)(=O)c3c(C)cc(C)cc3C)C(=O)O)CN2C(=O)CC(C)(C)C)c1", "units": "nM", "IC50": 4}
{"record.smiles": "Cc1cc(C)c(S(=O)(=O)N[C@@H](CNC(=O)CO[C@@H]2C[C@@H](CNc3cccc(C)n3)N(C(=O)OCc3ccccc3)C2)C(=O)O)c(C)c1", "units": "nM", "IC50": 21}
{"record.smiles": "Cc1cc(C)c(S(=O)(=O)N[C@@H](CNC(=O)CO[C@@H]2C[C@@H](CNc3ccccn3)N(C(=O)CCc3ccccc3)C2)C(=O)O)c(C)c1", "units": "nM", "IC50": 38}

###

target: Integrin alpha-5/beta-1 (Homo sapiens, UniProt P05556+P08648); test: Inhibition of integrin alpha-5-beta-1 receptor by ELISA; format: protein-complex assay
Sequence (P05556 21-798 limits assumed): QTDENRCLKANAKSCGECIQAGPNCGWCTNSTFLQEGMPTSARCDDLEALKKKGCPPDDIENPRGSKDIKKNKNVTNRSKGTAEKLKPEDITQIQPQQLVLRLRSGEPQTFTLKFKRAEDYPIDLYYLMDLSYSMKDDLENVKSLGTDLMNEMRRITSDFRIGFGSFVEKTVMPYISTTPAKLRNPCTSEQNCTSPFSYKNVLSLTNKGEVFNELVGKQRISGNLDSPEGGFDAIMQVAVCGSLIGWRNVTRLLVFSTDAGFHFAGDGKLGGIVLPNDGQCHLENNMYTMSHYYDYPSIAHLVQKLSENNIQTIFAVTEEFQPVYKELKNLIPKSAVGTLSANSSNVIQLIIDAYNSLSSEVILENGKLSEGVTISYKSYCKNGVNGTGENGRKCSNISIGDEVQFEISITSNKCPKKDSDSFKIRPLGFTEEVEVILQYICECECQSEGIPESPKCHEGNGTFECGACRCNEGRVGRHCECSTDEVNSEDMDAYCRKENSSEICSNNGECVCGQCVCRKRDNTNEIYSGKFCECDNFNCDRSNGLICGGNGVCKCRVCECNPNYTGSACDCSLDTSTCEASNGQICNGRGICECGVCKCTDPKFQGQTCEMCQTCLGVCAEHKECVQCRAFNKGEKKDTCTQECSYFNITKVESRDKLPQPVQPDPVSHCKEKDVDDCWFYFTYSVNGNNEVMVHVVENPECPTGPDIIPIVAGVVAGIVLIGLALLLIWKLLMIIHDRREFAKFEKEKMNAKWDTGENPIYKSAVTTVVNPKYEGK
Sequence (P08648 42-894 limits assumed): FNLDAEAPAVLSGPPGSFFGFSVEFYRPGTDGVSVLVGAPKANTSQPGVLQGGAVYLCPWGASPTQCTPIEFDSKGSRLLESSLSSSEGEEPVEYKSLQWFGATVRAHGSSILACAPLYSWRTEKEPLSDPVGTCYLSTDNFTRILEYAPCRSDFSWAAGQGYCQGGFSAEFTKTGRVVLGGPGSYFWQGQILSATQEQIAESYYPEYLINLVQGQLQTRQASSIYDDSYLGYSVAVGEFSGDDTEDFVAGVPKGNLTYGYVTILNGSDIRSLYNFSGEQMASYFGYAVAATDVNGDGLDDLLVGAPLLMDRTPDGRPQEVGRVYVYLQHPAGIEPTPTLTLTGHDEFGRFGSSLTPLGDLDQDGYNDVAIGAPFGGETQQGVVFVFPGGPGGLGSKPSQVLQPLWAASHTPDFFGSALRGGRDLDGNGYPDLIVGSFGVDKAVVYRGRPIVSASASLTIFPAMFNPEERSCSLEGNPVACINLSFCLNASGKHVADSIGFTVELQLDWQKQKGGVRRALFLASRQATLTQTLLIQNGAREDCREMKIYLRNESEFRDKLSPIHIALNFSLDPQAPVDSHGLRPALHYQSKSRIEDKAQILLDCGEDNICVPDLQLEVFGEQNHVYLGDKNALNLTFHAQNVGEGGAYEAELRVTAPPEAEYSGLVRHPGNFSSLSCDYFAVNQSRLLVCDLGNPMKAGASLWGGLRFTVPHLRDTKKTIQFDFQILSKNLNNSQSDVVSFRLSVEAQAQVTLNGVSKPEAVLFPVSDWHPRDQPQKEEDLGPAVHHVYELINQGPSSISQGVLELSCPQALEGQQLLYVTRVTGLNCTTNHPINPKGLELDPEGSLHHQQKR
Sequence (P08648 895-1049 limits assumed): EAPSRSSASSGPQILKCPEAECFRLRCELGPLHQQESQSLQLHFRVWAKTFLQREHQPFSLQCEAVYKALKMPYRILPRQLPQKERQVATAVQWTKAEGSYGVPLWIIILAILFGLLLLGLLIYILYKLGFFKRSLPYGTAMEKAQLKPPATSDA

{"record.smiles": "COc1ccnc(NC[C@@H]2C[C@@H](OCC(=O)NC[C@H](NS(=O)(=O)c3c(C)cc(C)cc3C)C(=O)O)CN2C(=O)OCc2ccccc2)c1", "IC50 [nM]": 1.1}
{"record.smiles": "Cc1cc(C)c(C(=O)N[C@@H](CNC(=O)CO[C@@H]2C[C@@H](CNc3ccccn3)N(C(=O)CC(C)(C)C)C2)C(=O)O)c(C)c1", "IC50 [nM]": 1.6}
{"record.smiles": "Cc1cc(C)c(C(=O)N[C@@H](CNC(=O)CO[C@@H]2C[C@@H](CNc3ccccn3)N(C(=O)OCc3ccccc3)C2)C(=O)O)c(C)c1", "IC50 [nM]": 3.5}
{"record.smiles": "COc1ccnc(NC[C@@H]2C[C@@H](OCC(=O)NC[C@H](NC(=O)C3(C)CCCCC3)C(=O)O)CN2C(=O)CC(C)(C)C)c1", "IC50 [nM]": 0.55}
{"record.smiles": "Cc1cc(C)c(S(=O)(=O)N[C@@H](CNC(=O)CO[C@@H]2C[C@@H](CNc3ccccn3)N(C(=O)CCc3ccccc3)C2)C(=O)O)c(C)c1", "IC50 [nM]": 25}
{"record.smiles": "Cc1cc(C)c(S(=O)(=O)N[C@@H](CNC(=O)CO[C@H]2CN[C@H](CNc3ccccn3)C2)C(=O)O)c(C)c1", "IC50 [nM]": 286}
{"record.smiles": "CC(C)(C)CC(=O)N1C[C@H](OCC(=O)NC[C@H](NC(=O)C2(C)CCCCC2)C(=O)O)C[C@H]1CNc1ccccn1", "IC50 [nM]": 1.4}
{"record.smiles": "COc1ccnc(NC[C@@H]2C[C@@H](OCC(=O)NC[C@H](NS(=O)(=O)c3c(C)cc(C)cc3C)C(=O)O)CN2C(=O)CC(C)(C)C)c1", "IC50 [nM]": 0.9}
